# test: Effect on ZAP70 phosphorylation in human Jurkat cells pre-incubated for 30 mins followed by anti-CD3/CD28 stimulation measured after 10 mins
pEC50: −log10 of the molar value.
experimental readout: pEC50

>>> obs_value("CCc1cc(NC(=O)c2nn(C3CCN(C(=O)NC(C)(C)C)CC3)c3ccccc23)ccc1-c1cc(C)c(=O)[nH]n1")
5.57
>>> obs_value("CC(C)(C)NC(=O)N1CCC(n2nc(C(=O)Nc3ccc(NC(=O)c4cnn5ccccc45)cc3)c3ccccc32)CC1")
5.85
>>> obs_value("CC(C)(C)NC(=O)N1CCC(n2nc(C(=O)Nc3ccc(NC(=O)c4cnn5ccccc45)c(Cl)c3)c3ccccc32)CC1")
7.31
>>> obs_value("CC(C)(C)NC(=O)N1CC(Cn2nc(C(=O)Nc3ccc(-c4ccc(=O)[nH]n4)c(Cl)c3)c3ccccc32)C1")
5.10
>>> obs_value("CC(C)(C)NC(=O)N1CCC(n2nc(C(=O)Nc3ccc(-c4ccc(=O)[nH]n4)c(Cl)c3)c3ccccc32)CC1")
5.24
>>> obs_value("CCc1cc(NC(=O)c2nn(C3CCN(C(=O)NC(C)(C)C)CC3)c3ccccc23)ccc1-c1n[nH]c(=O)c(C)c1C")
6.38
>>> obs_value("COc1ccc2c(C(=O)Nc3ccc(NC(=O)c4nn(C5CCN(C(=O)NC(C)(C)C)CC5)c5ccc(F)cc45)cc3Cl)cnn2c1")
7.25
>>> obs_value("CCc1cc(NC(=O)c2nn(C3CCN(C(=O)NC(C)(C)C)CC3)c3ccccc23)ccc1-c1n[nH]c(=O)cc1C")
5.70
>>> obs_value("Cc1cc(NC(=O)c2nn(C3CCN(C(=O)NC(C)(C)C)CC3)c3ccccc23)ccc1NC(=O)c1cnn2ccccc12")
7.38
>>> obs_value("COc1ccc2c(C(=O)Nc3ccc(NC(=O)c4nn(C5CCN(C(=O)NC(C)(C)C)CC5)c5ccccc45)cc3C)cnn2c1")
7.55
>>> obs_value("Cc1cc(NC(=O)c2nn(C3CCN(C(=O)CC(C)(C)C#N)CC3)c3ccccc23)ccc1NC(=O)c1cnn2ccccc12")
7.06
>>> obs_value("COc1ccc2c(C(=O)Nc3ccc(NC(=O)c4nn(C5CCN(C(=O)CC(C)(C)C#N)CC5)c5ccc(F)cc45)cc3Cl)cnn2c1")
7.39
>>> obs_value("Cc1cc(=O)[nH]nc1-c1ccc(NC(=O)c2nn(C3CCN(C(=O)NC(C)(C)C)CC3)c3ccccc23)cc1Cl")
5.39
